Give measured MIC ATB combined with Example 1 @8 μg/ml for each item. Keep answers brief.
System: SAU 29213
TEST SUMMARY: MIC, broth microdilution (CLSI), substance alone or ATB combined with compound at 4 or 8 μg/mL
Type: cell-based, S. aureus
TEST SETTINGS: SAU 29213; with Example 1 @8 μg/ml
Give just the numeric value; µg/mL need not be written.

**Query** Find the recorded MIC ATB combined with Example 1 @8 μg/ml belonging to CC[C@H]1OC(=O)[C@H](C)[C@@H](O[C@H]2C[C@@](C)(OC)[C@@H](O)[C@H](C)O2)[C@H](C)[C@@H](O[C@@H]2O[C@H](C)C[C@H](N(C)C)[C@H]2O)[C@](C)(O)C[C@@H](C)C(=O)[C@H](C)[C@@H](O)[C@]1(C)O and report it.
**Result** 0.25

**Query** Find the recorded MIC ATB combined with Example 1 @8 μg/ml belonging to CO[C@H]1/C=C/O[C@@]2(C)Oc3c(C)c(O)c4c(O)c(c(/C=N/N5CCN(C)CC5)c(O)c4c3C2=O)NC(=O)/C(C)=C\C=C\[C@H](C)[C@H](O)[C@@H](C)[C@@H](O)[C@@H](C)[C@H](OC(C)=O)[C@@H]1C and report it.
**Result** 0.0078

**Query** Find the recorded MIC ATB combined with Example 1 @8 μg/ml belonging to CC(=O)NC[C@H]1CN(c2ccc(N3CCOCC3)c(F)c2)C(=O)O1 and report it.
**Result** 2

**Query** Find the recorded MIC ATB combined with Example 1 @8 μg/ml belonging to CO/N=C(\C(=O)N[C@@H]1C(=O)N2C(C(=O)O)=C(COC(N)=O)CS[C@H]12)c1ccco1 [FUR, Cefuroxime, reference compound] and report it.
**Result** 1

**Query** Find the recorded MIC ATB combined with Example 1 @8 μg/ml belonging to O=C(N[C@H](CO)[C@H](O)c1ccc([N+](=O)[O-])cc1)C(Cl)Cl and report it.
**Result** 16

**Query** Find the recorded MIC ATB combined with Example 1 @8 μg/ml belonging to CO/N=C(\C(=O)N[C@@H]1C(=O)N2C(C(=O)O)=C(COC(C)=O)CS[C@H]12)c1csc(N)n1 and report it.
**Result** 2

**Query** Find the recorded MIC ATB combined with Example 1 @8 μg/ml belonging to CC1(C)S[C@@H]2[C@H](NC(=O)[C@H](N)c3ccc(O)cc3)C(=O)N2[C@H]1C(=O)O [AMX, Amoxicillin, reference compound] and report it.
**Result** 0.25

**Query** Find the recorded MIC ATB combined with Example 1 @8 μg/ml belonging to NCC[C@H](O)C(=O)N[C@@H]1C[C@H](N)[C@@H](O[C@H]2O[C@H](CN)[C@@H](O)[C@H](O)[C@H]2O)[C@H](O)[C@H]1O[C@H]1O[C@H](CO)[C@@H](O)[C@H](N)[C@H]1O [AN, Amikacin, reference compound] and report it.
**Result** 4

**Query** Find the recorded MIC ATB combined with Example 1 @8 μg/ml belonging to CN[C@H](CC(C)C)C(=O)N[C@H]1C(=O)N[C@@H](CC(N)=O)C(=O)N[C@H]2C(=O)N[C@H]3C(=O)N[C@H](C(=O)N[C@H](C(=O)O)c4cc(O)cc(O)c4-c4cc3ccc4O)[C@H](O)c3ccc(c(Cl)c3)Oc3cc2cc(c3O[C@@H]2O[C@H](CO)[C@@H](O)[C@H](O)[C@H]2O[C@H]2C[C@](C)(N)[C@H](O)[C@H](C)O2)Oc2ccc(cc2Cl)[C@H]1O and report it.
**Result** 1

**Query** Find the recorded MIC ATB combined with Example 1 @8 μg/ml belonging to C=CC1=C(C(=O)O)N2C(=O)[C@@H](NC(=O)/C(=N\OCC(=O)O)c3csc(N)n3)[C@H]2SC1 [FIX, Cefixime, reference compound] and report it.
**Result** 16

Value source: patent US20200024278A1
